# System: XIP peptide (Xip251-270)
# experiment.notes: small-molecule binders of XIP peptide, primary screen, biochemical, small-molecule microarray, fluorescence 635/667 nm, 0.5 µg/mL protein (AID 1183)
# condition.label: small-molecule microarray binding, fluorescence 635 nm; higher = more signal
test.readout: composite z-score
Format: numeric value only, no unit, no commentary.

COCCOC(=O)N1C(=O)[C@@]2(c3cc(C#CCC(C(=O)OC)C(=O)OC)ccc31)[C@H](C(N)=O)[C@H]1C(=O)O[C@H](c3ccccc3)[C@H](c3ccccc3)N1[C@@H]2c1ccc(OCCO)cc1    0.813
CCCC[C@@H](O)C1=C(COC)Cn2c(=O)n(-c3ccccc3)c(=O)n2[C@H]1CO    -0.0217
CN1C(=O)C2C(C1=O)C1C=C(c3ccc(CO)cc3)C2C(c2cccs2)N1C (configuration not stated)    -0.202
O=C1O[C@@H](c2ccccc2)[C@@H](c2ccccc2)N2[C@@H](c3ccc(OCCO)cc3)[C@]3(C(=O)Nc4ccc(C#CCCO)cc43)[C@@H](C(=O)Nc3nc4ccccc4s3)[C@H]12    0.487
O=C1OCCC=C[C@H]2OC34C=CCN(CCN5CCOCC5)C(=O)[C@H]3N(CCCO)C(=O)[C@@H]4C12 (some centres not stated)    0.0388

Give recorded composite z-score with XIP peptide (Xip251-270) for the following molecule: CCN(CC)c1ccc(N2CC=CC34O[C@@H]5C=CCOC(=O)[C@@H]5[C@H]3C(=O)N(CCCO)[C@@H]4C2=O)cc1 (some centres not stated) 0.306

Give recorded composite z-score with XIP peptide (Xip251-270) for the following molecule: CCCCCCCCCCC(O)C1C=CC2C(=O)N(C)C(=O)C2N1N1CCCCC1 (configuration not stated) 0.0634

###

The following compounds are listed with their measured z-score values.
# experiment.notes: basal HepG2 mitochondrial membrane potential changes, profiling panel, cell-based, JC-1 fluorescence, 24 h, 100 nL compound (AID 1167)
# condition.label: higher = more signal
Format: numeric value only, no unit, no commentary.

Worked cases, answers included:
CCC[C@@H]1C=C(C(=O)OCC)[C@H](c2ccccc2)N1S(=O)(=O)c1ccc(C)cc1    3.86
NCCCC[C@@H]1NC(=O)[C@H]2C[C@@H](C(=O)NCc3ccc(F)cc3)[C@@H](c3cccc(OCCO)c3)N2C1=O    -2.23
COC(=O)[C@@]1(Cc2ccc(OC)cc2)[C@H]2c3cc(C(=O)N(C)C)n(Cc4ccsc4Br)c3C[C@H]2CN1C(=O)c1ccccc1    2.25
Cc1c(NC(=O)/C(C#N)=C/c2ccc(Cl)cc2)c(=O)n(-c2ccccc2)n1C    0.497
C[N+](C)(C)CCCC[C@@H]1NC(=O)[C@H]2C[C@@H](C(=O)NCCCCCNC(=O)CS)[C@@H](c3ccc(O)cc3)N2C1=O    1.45

Form field: reported z-score of O=C1NC(=O)C2C1C=CC(C(O)c1ccc(F)cc1)N2Nc1ccccn1 (stereo not drawn) -1.53

Form field: reported z-score of CC(=O)c1ccc(C(O)C2C=CC3C(=O)NC(=O)C3N2Nc2ccc(Cl)cc2Cl)cc1 (stereo not drawn) -0.976

Form field: reported z-score of CCCC[C@H]1OB(O)C[C@H]2C1=C(COC)C[C@H]1C(=O)C=CC(=O)[C@H]12 -2.01

###

# experiment.notes: small-molecule binders of probe aNOTCH2, primary screen, biochemical, small-molecule microarray, 635/667 nm fluorescence (AID 1121);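 further: score merges feature fluorescence read at 667 nm with its signal to noise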
# condition.label: higher = more signal
test.readout: composite z-score
Format: numeric value only, no unit, no commentary.

Worked cases, answers included:
Cc1ccc(S[C@]2(C(=O)NCCN3CCOCC3)CC(=O)N(C3CCCCC3)[C@@H]2c2ccc(CO)cc2I)cc1    -0.155
COc1ccc(CC[C@H](O)c2cccc(OCC(=O)OC(C)(C)C)c2)cc1    -0.0876
C=CCC(OC(C)=O)[C@@H]1[C@@H](N(Cc2cccc3ccccc23)C(=O)c2ccc(-c3ccccc3)cc2)c2cc(OCCCO)ccc2N1C(=O)c1ccc2ccccc2n1 (some centres not stated)    -0.0639
CC(C)CNC(=O)[C@@H]1c2ccccc2C(=O)N(Cc2ccccc2Cl)[C@H]1c1ccc(CO)cc1    -0.0404
COc1ccc(NC(=O)O[C@H]2[C@H](OC(=O)Nc3ccc4c(c3)OCO4)[C@H](OC(=O)Nc3ccc4c(c3)OCO4)[C@@H](OC)O[C@@H]2CO)cc1    -0.117

Form field: reported composite z-score of COCCOC(=O)N1C(=O)[C@@]2(c3cc(C#CCCO)ccc31)[C@H](c1ccc(O)cc1)N1[C@H](c3ccccc3)[C@H](c3ccccc3)OC(=O)[C@H]1[C@@H]2C(=O)N1CCc2cc(OC)c(OC)cc2C1 0.305

Form field: reported composite z-score of CCCCC(O)C1C=CC2C(=O)NC(=O)C2N1Nc1ccccn1 (configuration not stated) 0.0377

###

# experiment.notes: HepG2 liver cancer cell viability effects, profiling panel, resazurin fluorescence, 24 h, PK04 Diversity Set (AID 1172)
# condition.label: higher = more signal
Class yes (1): z-score at least 0.2. Class no (0): z-score below 0.2.

Record excerpt, results attached:
CCCC=C(CCC)[C@@H](NS(=O)(=O)c1ccc(Cl)cc1)c1ccccc1    yes (1)
NCCCC[C@@H]1NC(=O)[C@H]2C[C@@H](C(=O)NCc3ccc(F)cc3)[C@@H](c3ccc(O)cc3)N2C1=O    no (0)
C=CC(CO)NC(=O)OCC1c2ccccc2-c2ccccc21 (stereo not drawn)    no (0)
CCOC(=O)C1=C[C@@H](C(C)(C)C)N(S(=O)(=O)c2ccc(C)cc2)[C@H]1c1ccccc1Cl    no (0)
CC(C)C[C@@H]1NC(=O)[C@@H]2C[C@H](C(=O)NCCCC[N+](C)(C)C)[C@H](c3ccc(O)cc3)N2C1=O    no (0)

Form field: z-score at least 0.2? Entry: Cc1ccc(S[C@]2(C(=O)NCCN3CCOCC3)CC(=O)N(C3CCCCC3)[C@@H]2c2ccc(CO)cc2I)cc1 yes (1)

Form field: z-score at least 0.2? Entry: CCOC(=O)C1=CCC(c2cc3ccccc3[nH]2)N(S(=O)(=O)c2ccccc2[N+](=O)[O-])C1 (stereo not drawn) no (0)

Form field: z-score at least 0.2? Entry: COCCCNC(=O)[C@@]1(Sc2ccc(C)cc2)CC(=O)N(C2CCCCC2)[C@@H]1c1ccc(CO)cc1I yes (1)

###

# Test system: Human papillomavirus type 1a protein E7 (residues 44-93)
# experiment.notes: HPV1a E7 fragment binders on microarrays, primary screen, biochemical, small-molecule microarray, residues 44-93, 635 nm fluorescence (AID 1108);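 further: E7 fragment applied at 1 µg/mL in TBST for 1 h at 4 C; score combines spot fluorescence with its signal to noise ratio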
# condition.label: small-molecule microarray binding, fluorescence 635 nm; higher = more signal
The following compounds are listed with their measured composite z-score values.
Format: numeric value only, no unit, no commentary.

Worked cases, answers included:
COc1ccc(NN2C(C(O)c3ccc(OC)cc3)C=CC3C(=O)N(C4CCCCC4)C(=O)C32)cc1 (stereo not drawn)    1.2
COC(=O)Cn1c(C(=O)N(C)C)cc2c1C[C@H]1CN(C(=O)c3ccccc3)[C@@](Cc3ccc(OC)cc3)(C(=O)OC)[C@@H]21    1.3
COc1ccc([Si](C)(C)[C@H]2[C@H](CCn3cc([C@H](O)c4ccccc4)nn3)O[C@@]3(C(=O)N(C)c4c(Br)cc(C)cc43)[C@@H]2C)cc1    -0.0087
CCCCN1CC=CC23O[C@@H]4C=CCOC(=O)[C@@H]4[C@H]2C(=O)N(CCO)[C@@H]3C1=O (stereo partly drawn)    -0.718
O=C1NC(=O)C2C1C=CC(C(O)c1cccc(O)c1)N2Nc1ccc(Cl)cc1Cl (stereo not drawn)    -0.429

Continue with the next compound.
Form field: reported composite z-score of COCCOC(=O)N1C(=O)[C@@]2(c3cc(C#CC4(O)CCCCCC4)ccc31)[C@H](c1ccccc1OCCO)N1[C@H](c3ccccc3)[C@H](c3ccccc3)OC(=O)[C@H]1[C@@H]2C(=O)N1CCCCCCC1 1.06

###

# experiment.notes: CREB reporter modulators without forskolin, primary screen, cell-based, PC12, CRE-LacZ reporter, unstimulated (AID 1145)
# condition.label: no forskolin, luminescence, 4.5 h, higher = more signal, called active from +8 up or from −8 down
test.readout: z-score
Format: numeric value only, no unit, no commentary.

Worked cases, answers included:
O=C(NCCO)C1=C[C@H](Oc2ccccc2I)[C@@H](O)[C@H](NCc2ccc(F)cc2)C1    4.56
CCC(CC)C(O)C1C=CC2C(=O)N(C)C(=O)C2N1N1CCCCC1 (stereo not drawn)    0.0501
CCCCCCCCCCC(O)C1C=CC2C(=O)N(C)C(=O)C2N1N1CCCCC1 (stereo not drawn)    0.0569
C=CCNC(=O)[C@@H]1[C@H]2C(=O)O[C@H](c3ccccc3)[C@H](c3ccccc3)N2[C@H](c2ccccc2OCCO)[C@@]12C(=O)N(C(=O)OCCOC)c1ccc(C#CCCO)cc12    -0.0768
C=CC[C@]1(C(=O)OC)N=C(c2ccc(OCCCO)cc2)O[C@H]1c1ccccc1N=[N+]=[N-]    0.171

Form field: reported z-score of N[C@@H](Cc1ccccc1)Cn1cc(C2(O)CCCCC2)nn1 -0.244

Form field: reported z-score of C=CCNC(=O)[C@H]1[C@@H]2C(=O)O[C@@H](c3ccccc3)[C@@H](c3ccccc3)N2[C@@H](c2ccccc2OCCO)[C@]12C(=O)N(C(=O)OCCOC)c1ccccc12 -0.195

Form field: reported z-score of COc1ccc(CCNC(=O)[C@@H]2c3ccccc3C(=O)N(CC34CC5CC(CC(C5)C3)C4)[C@H]2c2ccc(CO)cc2)cc1 0.441
